Overview of reported pIC50 across a group of molecules:
# SYSTEM UNDER TEST: human alpha2A receptors (Homo sapiens, UniProt P08913)
# Sequence (P08913 whole entry): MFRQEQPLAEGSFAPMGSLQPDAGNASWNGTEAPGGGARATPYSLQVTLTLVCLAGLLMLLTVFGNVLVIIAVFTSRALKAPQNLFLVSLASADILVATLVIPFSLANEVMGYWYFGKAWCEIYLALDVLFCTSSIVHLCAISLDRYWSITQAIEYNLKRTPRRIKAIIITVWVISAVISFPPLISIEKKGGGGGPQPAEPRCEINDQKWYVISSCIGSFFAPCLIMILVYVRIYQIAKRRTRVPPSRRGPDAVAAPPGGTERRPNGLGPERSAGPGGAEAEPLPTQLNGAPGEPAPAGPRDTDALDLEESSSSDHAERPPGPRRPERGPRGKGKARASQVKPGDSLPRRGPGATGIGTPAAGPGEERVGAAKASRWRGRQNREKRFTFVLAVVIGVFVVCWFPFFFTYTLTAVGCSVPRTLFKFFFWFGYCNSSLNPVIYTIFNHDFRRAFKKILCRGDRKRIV
# EXPERIMENT SUMMARY: cell-based
pIC50: −log10 of the molar value.

pIC50 reading for O=C1C(=O)N([C@H]2CCCN(C[C@H]3COc4ccccc4O3)C2)C(=O)N1C1CCCC1 : 5.06

pIC50 reading for O=C1c2ncncc2CN1[C@H]1CCCN(C[C@H]2COc3ccccc3O2)C1 : < 5.00

pIC50 reading for c1ccc2c(c1)OC[C@H](CN1CCC[C@H](n3nnc4ccccc43)C1)O2 : 5.56

* * *

# SYSTEM UNDER TEST: human alpha2A receptors (Homo sapiens, UniProt P08913)
# EXPERIMENT SUMMARY: cell-based
pIC50: −log10 of the molar value.
Overview of reported pIC50 across a group of molecules:

Worked examples follow.
molecule="CN1C(=O)N([C@H]2CCCN(C[C@H]3COc4ccccc4O3)C2)C(=O)C1(C)C [example 111]" recorded_result="< 5.00"
molecule="N#Cc1ccc2c(c1)CN([C@H]1CCCN(C[C@H]3COc4ccccc4O3)C1)C2=O [example 67]" recorded_result="< 5.00"
molecule="CC1(c2ccccc2)CC(=O)N([C@H]2CCCN(C[C@H]3COc4ccccc4O3)C2)C1=O (stereo partly shown) [example 35]" recorded_result=6.71

Next molecule, pIC50 to be filled in.
pIC50 reading for CN1C(=O)N([C@H]2CCCN(C[C@H]3COc4ccccc4O3)C2)C(=O)C12CC2 [example 123] : < 5.00

* * *

# SYSTEM UNDER TEST: UniProtKB P18825
# Sequence (P18825 whole entry): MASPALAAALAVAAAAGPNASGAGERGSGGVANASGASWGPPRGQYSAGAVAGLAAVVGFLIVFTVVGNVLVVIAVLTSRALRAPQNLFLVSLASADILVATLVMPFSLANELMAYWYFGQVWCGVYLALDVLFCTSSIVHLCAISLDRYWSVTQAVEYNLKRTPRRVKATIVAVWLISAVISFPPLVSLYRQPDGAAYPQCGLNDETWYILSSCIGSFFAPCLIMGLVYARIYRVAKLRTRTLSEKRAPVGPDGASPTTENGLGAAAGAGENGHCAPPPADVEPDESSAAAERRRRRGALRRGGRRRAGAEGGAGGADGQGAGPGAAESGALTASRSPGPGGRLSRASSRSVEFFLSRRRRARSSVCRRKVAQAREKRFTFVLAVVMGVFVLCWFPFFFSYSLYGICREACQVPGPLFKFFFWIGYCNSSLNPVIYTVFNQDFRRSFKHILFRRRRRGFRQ
# EXPERIMENT SUMMARY: Determination of alpha2C antagonistic activity in vitro (FLIPR calcium assay)
# ASSAY CONTEXT: Alpha 2C Adrenaline Kb, Kb calculated from IC50 with the Cheng-Prusoff equation; adrenaline as agonist; CHO cells, human alpha2C
ENDPOINT: Kb (nM)

Worked examples follow.
compound="c1ccc2c(c1)OC[C@H](CN1CCC[C@H](n3cnc4cncnc43)C1)O2 [example 161]" system_under_test="UniProtKB P18825" endpoint=Kb unit_label=nM recorded_result=0.03
compound="CC1CCN([C@H]2CCCN(C[C@H]3COc4ccccc4O3)C2)C1=O (single isomer, unassigned; diastereomer 1) [example 98]" system_under_test="UniProtKB P18825" endpoint=Kb unit_label=nM recorded_result=0.93
compound="Cc1nc2cncnc2n1[C@H]1CCCN(C[C@H]2COc3ccccc3O2)C1 [example 160]" system_under_test="UniProtKB P18825" endpoint=Kb unit_label=nM recorded_result=0.016

[a] CC(C)N1C(=O)N([C@H]2CCCN(C[C@H]3COc4ccccc4O3)C2)C[C@H]1c1ccccc1 [example 6]
[b] O=C1C(=O)N([C@H]2CCCN(C[C@H]3COc4ccccc4O3)C2)C(=O)N1Cc1cccnc1 [example 143]
Request: Of a and b , which shows the smaller Kb value? Select an item and report its label.
Response: b
(b: 0.14 nM, a: 67.7 nM)

[I] O=c1n(-c2ccccc2)c2ccccc2n1[C@H]1CCCN(C[C@H]2COc3ccccc3O2)C1 [example 149]
[II] O=C1c2cccnc2C(=O)N1[C@H]1CCCN(C[C@H]2COc3ccccc3O2)C1 [example 75]
Request: Compare the recorded Kb of I and II ; state which is larger. Select an item and report its label.
Response: I

Values from patent US20190152992A1
